system: maximal electroshock seizures in mice; assay: Maximal electroshock seizure test (MES); format: in vivo; conditions: 2.0 h after i.p. administration
Observable: ED50 MES (mg/kg)
Only the number, expressed in mg/kg, is required.

Below are worked cases with known answers.
[2H]c1c([2H])c([2H])c(CNC(=O)[C@@H](C)N2C(=O)C([2H])([2H])C([2H])([2H])C2=O)c([2H])c1[2H] [d9-(R)-2] ... 57.7
[2H]C([2H])(NC(=O)[C@@H](C)N1C(=O)C([2H])([2H])C([2H])([2H])C1=O)c1ccccc1 [d6-(R)-5] ... 28.7

Moving on to another compound below.
Q: So what does the record say about ED50 MES for CC(C(=O)NCc1ccccc1F)N1C(=O)CCC1=O (stereo not drawn) [Compound 2, reference compound] ?
Result: 73.3
